# experimentNotes: chemical genetic growth profiling, strain panel (AID 1159580);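 also: tested at 20 µM; growth read once vehicle control cultures reached saturation at 30 °C; 1 = growth at the plate median or of vehicle wells; lower values mean less growth of the strain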
# experimentalConditions: S. cerevisiae deletion strains, growth OD, locus YJL164C, strain tpk1
The campaign covered roughly 5,500 compounds. About 2,000 (36%) were called active. About 18% were inconclusive and are not listed. Rule as the data show it: active = normalized growth mostly below about 0.91 (no sharp cut-off); inconclusive = no clear call, values can overlap the other calls; inactive = mostly above about 0.92. The list shows a part of the results. Where a SMILES comes first, the peptide text is derived from it. Bridges are numbered along the chain shown (N, C = ends). [ ]: non-standard residue; d: D form. The star is where a group is joined. ξ: configuration not given here. ξDab(CH2SO3H) = NC(CCNCS(=O)(=O)O)C(=O)O; Heptanoyl(6-Me) = CC(C)CCCCC(=O)*; Dab = NCC[CH](N)C(=O)O
Pick one: 1 (yes) (active), 0 (no) (inactive)

(Q) Answer briefly: the call reported for "Cc1cc(O)cc(=O)o1" in this assay.
(A) 0 (no)

(Q) Status in this test for C[C@H]1[C@H](C)CC[C@]2(CO)CC[C@]3(C)C(=CCC4[C@@]5(C)CC[C@H](O)C(C)(C)C5CC[C@]43C)[C@H]12 (some centres undefined) ?
(A) 0 (no)

(Q) I would be grateful if you could indicate the recorded call for CCC(C)C1NC(=O)C(CCNCS(=O)(=O)O)NC(=O)C(NC(=O)C(CCNCS(=O)(=O)O)NC(=O)C(NC(=O)C(CCNCS(=O)(=O)O)NC(=O)CCCCC(C)C)C(C)O)CCNC(=O)C(C(C)O)NC(=O)C(CCNCS(=O)(=O)O)NC(=O)C(CCNCS(=O)(=O)O)NC(=O)C(C(C)CC)NC1=O (centres undefined) ({Heptanoyl(6-Me)}-[ξDab(CH2SO3H)]T[ξDab(CH2SO3H)][Dab][ξDab(CH2SO3H)]II[ξDab(CH2SO3H)][ξDab(CH2SO3H)]T; lactam 4-C; configuration not given here) .
(A) 0 (no)

(Q) What call does the record list for Nc1c2ccccc2nc2ccccc12 (tested in a mixture with another compound) ?
(A) 1 (yes)

(Q) Lab log entry: "Nc1c2ccccc2nc2ccccc12" — outcome as called in the assay?
(A) 1 (yes)

(Q) Please state the recorded outcome for this molecule: COC(=O)C[C@H]1C(C)(C)C2(O)OC34CC2C(=O)[C@]1(C)C3CC[C@]1(C)C4=CC(=O)O[C@H]1c1ccoc1 (some centres undefined)
(A) 0 (no)

(Q) How was Nc1ccccc1C(=O)CC(N)C(=O)O (centres undefined) classified in this test?
(A) 0 (no)

(Q) // param item: C#C[C@]1(O)CCC2C3CCC4=C(CCC(=O)C4)C3CC[C@@]21C (some centres undefined) ; yields the recorded call
(A) 0 (no)

(Q) Outcome logged for COC(=O)C[C@H]1C(C)(C)C(=O)[C@@H]2CC3C4=CC(=O)O[C@@H](c5ccoc5)[C@]4(C)CCC3[C@@]1(C)C2=O (some centres undefined) in this assay:
(A) 0 (no)

(Q) // return assay outcome for "NC(N)=N/N=C/c1c(Cl)cccc1Cl"
(A) 0 (no)

(Q) Test call for this molecule, please: C#C[C@]1(O)CCC2C3CCC4=CC(=O)CC[C@@H]4C3CC[C@@]21CC (some centres undefined)
(A) 0 (no)

(Q) Status in this test for "N=C(N)c1ccc(OCCCCCOc2ccc(C(=N)N)cc2)cc1" ?
(A) 0 (no)

(Q) What classification did "COc1ccc2[nH]cc(CCN)c2c1" end up with in this test?
(A) 0 (no)

(Q) Test call for this molecule, please: Nc1c2c(nc3ccccc13)CCCC2O (centres undefined)
(A) 0 (no)

(Q) Answer briefly: the call reported for "CCOc1ccc2nc3cc(N)ccc3c(N)c2c1" in this assay.
(A) 1 (yes)

(Q) Status in this test for "CC(C)(C#N)O[C@@H]1O[C@H](CO)[C@@H](O)[C@H](O)[C@H]1O" ?
(A) 0 (no)

(Q) Short answer needed: outcome of this test for C/C=C(/C)C(=O)O[C@@H]1[C@H](OC(C)=O)[C@@]2(CO)C(CC1(C)C)C1=CCC3[C@@]4(C)CC[C@H](O[C@@H]5O[C@H](C(=O)O)[C@@H](O[C@@H]6O[C@H](CO)[C@@H](O)[C@H](O)[C@H]6O)[C@H](O)[C@H]5O[C@@H]5O[C@H](CO)[C@@H](O)[C@H](O)[C@H]5O)[C@](C)(CO)C4CC[C@@]3(C)[C@]1(C)C[C@H]2O (some centres undefined) ?
(A) 0 (no)

(Q) Answer briefly: the call reported for C[C@@H]1CC[C@]2(C(=O)O)CC[C@]3(C)C(=CCC4[C@@]5(C)CC[C@H](O)C(C)(C)C5CC[C@]43C)C2[C@H]1C (some centres undefined) in this assay.
(A) 0 (no)

(Q) Which outcome was assigned to "Cc1cn([C@H]2C[C@H](N=[N+]=[N-])[C@@H](CO)O2)c(=O)[nH]c1=O" in this test?
(A) 0 (no)

(Q) Any idea what this test logged for "COc1cc(C(=O)NCCCCCC(=O)O)cc(OC)c1OC" ?
(A) 0 (no)

(Q) Returns: the outcome recorded for "O=C(CNC(=O)c1ccc(Cl)cc1)NO" in this assay.
(A) 0 (no)

(Q) Identify the outcome logged in this assay for the molecule shown: "COC1=C[C@@H]2[C@@H]3Cc4ccc(OC)c(O)c4[C@]2(CCN3C)CC1=O"
(A) 0 (no)

(Q) How did this test come out for "Cc1cc(O)cc(O)c1C(=O)O" ?
(A) 0 (no)

(Q) So what was the verdict on "CNCc1ccccc1" in this test?
(A) 0 (no)

---

# experimentNotes: chemical genetic growth profiling, strain panel (AID 1159580);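 also: tested at 20 µM; growth read once vehicle control cultures reached saturation at 30 °C; 1 = growth at the plate median or of vehicle wells; lower values mean less growth of the strain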
# experimentalConditions: S. cerevisiae deletion strains, growth OD, locus YDR502C, strain sam2, active compounds read low
In all, about 5,500 compounds went through this assay and about 2,000 (36%) were called active. Not shown: some 18% with an inconclusive outcome. This is one part of the list.
measurementLabel: normalized growth
I'd appreciate a reply containing only the number, no unit.

Lab note: "NNC(=O)c1ccncc1" gave normalized growth of 0.993

Looking up Cc1ccc(S(=O)(=O)NC(=O)NN2CC3CCCC3C2)cc1 (configuration not stated) , I see its normalized growth listed as 0.997

Given item "O=c1cc(CO)occ1O" , the value recorded as its normalized growth is 1.03

// normalized growth lookup, compound = "COc1ccc2[nH]cc(CCN)c2c1" , result: 0.995

Reported normalized growth of C#C[C@]1(O)CCC2C3CCC4=C(CCC(=O)C4)C3CC[C@@]21C (some centres not stated) : 0.985

Reported normalized growth ( C[C@]12CCC(=O)C=C1CCC1C2[C@@H](O)C[C@@]2(C)C1CC[C@]2(O)C(=O)CO (some centres not stated) ) = 1.01

The value of normalized growth measured for the compound "N=C(N)c1ccc(OCCCCCOc2ccc(C(=N)N)cc2)cc1" turned out to be 0.907

Briefly, normalized growth measured for "Nc1c2ccccc2nc2ccccc12" : 0.513

# normalized growth of CC(=O)Nc1ccc(OCC(O)CNC(C)C)cc1 (configuration not stated) = 0.99

Lab note: measured normalized growth of N#CC(O[C@@H]1O[C@H](CO[C@@H]2O[C@H](CO)[C@@H](O)[C@H](O)[C@H]2O)[C@@H](O)[C@H](O)[C@H]1O)c1ccccc1 (some centres not stated) was 1.02

normalized growth recorded for this compound, C#C[C@]1(O)CCC2C3CCC4=CC(=O)CC[C@@H]4C3CC[C@@]21C (some centres not stated) , is 0.957

normalized growth for "CC(C)(Oc1ccc(CCNC(=O)c2ccc(Cl)cc2)cc1)C(=O)O" is 1.02

---

# experimentNotes: chemical genetic growth profiling, strain panel (AID 1159580);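 also: tested at 20 µM; growth read once vehicle control cultures reached saturation at 30 °C; 1 = growth at the plate median or of vehicle wells; lower values mean less growth of the strain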
# experimentalConditions: S. cerevisiae deletion strains, growth OD, locus YKL203C, strain TOR2
About 2,000 (36%) of roughly 5,500 compounds were called active. Not shown: some 18% with an inconclusive outcome. Rule as the data show it: active = normalized growth mostly below about 0.91 (no sharp cut-off); inconclusive = no clear call, values can overlap the other calls; inactive = mostly above about 0.92. This is one part of the list.
Classes to choose from: y for active, n for inactive

(Q) Look up the recorded call for "Brc1ccc2[nH]c3c(c2c1)CCC3" in this test.
(A) n

(Q) Which outcome was entered for the compound "O=C(Nc1ccccc1Sc1ccc([N+](=O)[O-])cc1[N+](=O)[O-])C(Cl)(Cl)Cl" in this test?
(A) n

(Q) Per the assay record, what outcome was assigned to "Clc1cc(Cl)cc(-c2nc(SCc3ccc(Cl)cc3Cl)n[nH]2)c1" ?
(A) n

(Q) Fill in: this test's call for CC(C)Cc1ccc(C(C)C(=O)Nc2nn(C)c3ccccc23)cc1 (stereo unspecified) is ___
(A) n

(Q) Call for entry O=C(NCC(c1ccccc1)c1c[nH]c2ccccc12)c1ccc(C(F)(F)F)cc1 (stereo unspecified) :
(A) n

(Q) For this compound, state the assay outcome: "O=[N+]([O-])c1cnc(Sc2nnc(SCc3cccc(C(F)(F)F)c3)s2)s1"
(A) y

---

# experimentNotes: chemical genetic growth profiling, strain panel (AID 1159580);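 also: tested at 20 µM; growth read once vehicle control cultures reached saturation at 30 °C; 1 = growth at the plate median or of vehicle wells; lower values mean less growth of the strain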
# experimentalConditions: S. cerevisiae deletion strains, growth OD, locus YJL134W, strain LCB3, active compounds read low
In all, about 5,500 compounds went through this assay and about 2,000 (36%) were called active. Inconclusive results (about 18%) are left out. Some of the results follow.
measurementLabel: normalized growth
Number, no unit, nothing else.

So for CCC(C)C(=O)O[C@H]1[C@H](O)C2C(CN3CC(C)CCC3[C@@]2(C)O)C2C[C@]34O[C@]5(O)C(OC(=O)C(C)(O)CC)CC[C@@]3(C)C5C(OC(C)=O)[C@@H](OC(C)=O)C4[C@@]21O (some centres not stated) , the logged normalized growth turned out to be 1.01

response.value for CC(C)=CCCC1(C)C=Cc2c(O)c3c(c(CC=C(C)C)c2O1)OC12C(=CC4CC1C(C)(C)OC2(C/C=C(/C)C(=O)O)C4O)C3=O (configuration not stated) (field: normalized growth) = 0.976

The recorded normalized growth for entry COC(=O)C[C@H]1C(C)(C)C(=O)[C@@H]2CC3C4=CC(=O)O[C@@H](c5ccoc5)[C@]4(C)CCC3[C@@]1(C)C2=O (some centres not stated) equals 0.97

The compound listed as CCOC(=O)OC(C)OC(=O)C1N2C(=O)C(NC(=O)[C@H](N)c3ccccc3)C2SC1(C)C (some centres not stated) shows normalized growth equal to 0.992

Memo: CC1=CCC2C3(C)C1=CC(=O)OC3CC1C(C)(C)CC(O)C(O)C12C (configuration not stated) , reported normalized growth: 1.01

Measured normalized growth, CC1(C)CC[C@]2(C)CC[C@]3(C)C(=CCC4[C@@]5(C)CC[C@H](O)C(C)(C)C5CC[C@]43C)C2C1 (some centres not stated) : 0.998

normalized growth reading for CC(C)=CCCC1(C)C=Cc2c(O)c3c(c(CC=C(C)C)c2O1)OC12C(CC4CC1C(C)(C)OC2(C/C=C(/C)C(=O)O)C4O)C3=O (configuration not stated) : 0.993
